- Tested on: SF-268
- particulars: read-out: Median Lethal Concentration (LC50); CNS Cancer, SF-268; 48 hours, SRB assay
measured property: CC50 (µM)
# output: bare number, implied unit µM

[Q] Give the reported value of CC50 for this record: O=C1C(=Cc2ccccc2O)COCC1=Cc1ccccc1O [EF25]
[A] 43.3

====

- Test system: MCF-7
- experimental details: cells
- particulars: Homo sapiens, MCF7, 48 h, read-out: Median Growth Inhibitory Concentration (GI50)
measured property: GI50 (µM)
# output: bare number, implied unit µM

compound | GI50 / µM
CC1(/C=C/c2ccccc2O)C=Cc2ccccc2O1 (stereo not drawn) [EF7] | 18

[Q] Give the reported value of GI50 for this record: OC(CCc1ccc(F)cc1F)CCc1ccc(F)cc1F [EF19, 1,5-Bis(2,4-difluorophenyl)-pentan-3-ol]
[A] 17.7

[Q] Give the reported value of GI50 for this record: O=C(C=Cc1ccc(F)cc1F)C=Cc1ccc(F)cc1F [EF9]
[A] 3

[Q] Give the reported value of GI50 for this record: CC(=O)O.O=C1C(=Cc2ccccc2F)CNCC1=Cc1ccccc1F [EF24]
[A] 0.2

[Q] Give the reported value of GI50 for this record: O=C1C(=Cc2ccccc2O)CCCC1=Cc1ccccc1O [EF4]
[A] 2.7

[Q] Give the reported value of GI50 for this record: COc1cc(/C=C/C(=O)CC(=O)/C=C/c2ccc(O)c(OC)c2)ccc1O [Curcumin]
[A] 3.2

====

- System: SK-MEL-28
- experimental details: cells
- particulars: Homo sapiens, SK-MEL-28, 48 h, read-out: Median Growth Inhibitory Concentration (GI50)
measured property: GI50 (µM)
# output: bare number, implied unit µM

Worked examples, 5 molecules total:
molecule | GI50 (µM)
COc1cc(/C=C/C(=O)CC(=O)/C=C/c2ccc(O)c(OC)c2)ccc1O | 5
CC(=O)O.O=C1C(=Cc2ccccc2F)CNCC1=Cc1ccccc1F | 2.1
OC(CCc1ccc(F)cc1F)CCc1ccc(F)cc1F | 17.1
CC1(/C=C/c2ccccc2O)C=Cc2ccccc2O1 (stereo not drawn) | 17.4
O=C1C(=Cc2ccccc2O)CCCC1=Cc1ccccc1O | 2.9

Kindly consider the entry below.
[Q] Give the reported value of GI50 for this record: `O=C(C=Cc1ccc(F)cc1F)C=Cc1ccc(F)cc1F`
[A] 18.6

====

- Tested on: RPMI-7951 human melanoma
- experimental details: Neutral Red Assay, cell viability, RPMI-7951
- particulars: RPMI-7951; 5 μM; 72 hours
measured property: Neutral Red Uptake, %

Worked examples, 3 compounds total:
compound | Neutral Red Uptake, %
COc1cc(C=C2CCCC(=Cc3ccc(O)c(OC)c3)C2=O)ccc1O [MD10] | 82 % of control
COc1ccc(CCC(O)CCc2ccc(OC)c(OC)c2)cc1OC [MD279L, 1,5-Bis(3,4-dimethoxyphenyl)penta-3-ol] | 100 % of control
N.N.[Cl][Pt][Cl] [Cisplatin, reference compound] | 100 % of control

[Q] Give the reported value of Neutral Red Uptake, % for this record: C(=C\c1ccccc1)/S/C=C/c1ccccc1 [EF15]
[A] 100 % of control

[Q] Give the reported value of Neutral Red Uptake, % for this record: COc1ccc(CCC(=O)CCc2ccc(OC)c(OC)c2)cc1OC [MD279U, 1,5-Bis(3,4-dimethoxyphenyl)penta-3-one]
[A] 100 % of control

[Q] Give the reported value of Neutral Red Uptake, % for this record: COc1ccc(/C=C/C(=O)/C=C/c2ccc(OC)c(OC)c2)cc1OC [MD6]
[A] 97 % of control

====

- System: M14
- experimental details: cells
- particulars: Homo sapiens, M14, 48 h, read-out: Median Lethal Concentration (LC50)
Threshold 50 µM. CC50 below it: Yes. CC50 at it or above: No.

Study these solved cases before continuing.
compound | system | assigned class
O=C1C(=Cc2ccccc2O)CCCC1=Cc1ccccc1O [EF4] | M14 | Yes
OC(CCc1ccc(F)cc1F)CCc1ccc(F)cc1F [EF19, 1,5-Bis(2,4-difluorophenyl)-pentan-3-ol] | M14 | No
CC1(/C=C/c2ccccc2O)C=Cc2ccccc2O1 (stereo not drawn) [EF7] | M14 | No

Now take the following compound into account.
[Q] Regarding CC(=O)O.O=C1C(=Cc2ccccc2F)CNCC1=Cc1ccccc1F [EF24] , kindly confirm whether its CC50 is beneath 50 µM.
[A] Yes

====

- Tested on: Tissue Factor (TF) production by human prostate cancer cell line PC-3
- experimental details: TF ELISA, PC-3
- Assay type: cell-based
- particulars: 20 μM, DMSO = 100%
measured property: TF (% of DMSO)

smiles data | measured property | measured value
O=C1C(=Cc2ccccc2O)CCCC1=Cc1ccccc1O | TF (% of DMSO) | (16%)
O=C(C=Cc1ccc(O)cc1)C=Cc1ccc(O)cc1 | TF (% of DMSO) | (53%)
COc1cc(C=C2CCCC(=Cc3ccc(O)c(OC)c3)C2=O)ccc1O | TF (% of DMSO) | (0%)
O=C(C=Cc1ccccc1O)C=Cc1ccccc1O | TF (% of DMSO) | (36%)
COc1cc(/C=C/C(=O)CC(=O)/C=C/c2ccc(O)c(OC)c2)ccc1O | TF (% of DMSO) | (68%)

Kindly consider the entry below.
[Q] Give the reported value of TF (% of DMSO) for this record: `O=C(C=Cc1cccc(O)c1)C=Cc1cccc(O)c1`
[A] (69%)

====

- System: MOLT-4
- experimental details: cells
- particulars: Homo sapiens, MOLT-4, 48 h, read-out: Median Lethal Concentration (LC50)
measured property: CC50 (µM)
# output: bare number, implied unit µM

compound | measured property | measured value
OC(CCc1ccc(F)cc1F)CCc1ccc(F)cc1F | CC50 | 75.6
O=C1C(=Cc2ccccc2O)CCCC1=Cc1ccccc1O | CC50 | 69.5
CC(=O)O.O=C1C(=Cc2ccccc2F)CNCC1=Cc1ccccc1F | CC50 | 66.2
CC1(/C=C/c2ccccc2O)C=Cc2ccccc2O1 (stereo not drawn) | CC50 | 64.7

Kindly consider the entry below.
[Q] Output reported CC50 of the compound `COc1cc(/C=C/C(=O)CC(=O)/C=C/c2ccc(O)c(OC)c2)ccc1O` on MOLT-4.
[A] 79.4

====

# CC50 per entry
- Tested on: 786-0
- experimental details: cells
- particulars: Homo sapiens, 786-0, 48 h, read-out: Median Lethal Concentration (LC50)
# output: bare number, implied unit µM

Worked examples, 2 compounds total:
compound | measured value
COc1cc(/C=C/C(=O)CC(=O)/C=C/c2ccc(O)c(OC)c2)ccc1O | 39.8
O=C1C(=Cc2ccccc2O)CCCC1=Cc1ccccc1O | 15.9

[Q] Give the reported value of CC50 for this record: `O=C(C=Cc1ccc(F)cc1F)C=Cc1ccc(F)cc1F`
[A] 49.6

[Q] Give the reported value of CC50 for this record: CC1(/C=C/c2ccccc2O)C=Cc2ccccc2O1 (stereo not drawn)
[A] 54.8

[Q] Give the reported value of CC50 for this record: `OC(CCc1ccc(F)cc1F)CCc1ccc(F)cc1F`
[A] 55.4

[Q] Give the reported value of CC50 for this record: `CC(=O)O.O=C1C(=Cc2ccccc2F)CNCC1=Cc1ccccc1F`
[A] 1.6

====

- Tested on: RPMI-7951 human melanoma
- experimental details: Neutral Red Assay, cell viability, RPMI-7951
- particulars: Homo sapiens, RPMI-7951, 72 h, read-out: Neutral Red Uptake, %
measured property: viability at 20 µM (%)
# output: bare number, implied unit %

Worked examples, 3 compounds total:
compound | system | measured value
O=C(C=Cc1ccc(F)cc1F)C=Cc1ccc(F)cc1F | RPMI-7951 human melanoma | 11
O=C1CCC(N2C(=O)c3ccccc3C2=O)C(=O)N1 (stereo not shown) [Thalidomide, reference compound] | RPMI-7951 human melanoma | 100
O=C1C(=Cc2ccccc2O)CCCC1=Cc1ccccc1O | RPMI-7951 human melanoma | 4

[Q] Give the reported value of viability at 20 µM for this record: `O=C(C=Cc1ccccc1F)C=Cc1ccccc1F`
[A] 8

[Q] Give the reported value of viability at 20 µM for this record: `O=C(C=Cc1ccc(O)cc1)C=Cc1ccc(O)cc1`
[A] 8

[Q] Give the reported value of viability at 20 µM for this record: `O=C(C=Cc1ccccc1O)C=Cc1ccccc1O`
[A] 7

[Q] Give the reported value of viability at 20 µM for this record: `O=C(C=Cc1ccc(F)c(F)c1)C=Cc1ccc(F)c(F)c1`
[A] 8

[Q] Give the reported value of viability at 20 µM for this record: `O=C(C=Cc1cccc(O)c1)C=Cc1cccc(O)c1`
[A] 8

[Q] Give the reported value of viability at 20 µM for this record: CN(C)/N=N/c1[nH]cnc1C(N)=O [Decabazine, Decarbazine, reference compound]
[A] 100

[Q] Give the reported value of viability at 20 µM for this record: `COc1cc(/C=C/C(=O)CC(=O)/C=C/c2ccc(O)c(OC)c2)ccc1O`
[A] 14
